# Test system: Candida tropicalis ATCC 750
# Assay Comment: microbe, parasite or virus in culture
# Type: cell-based
# Run Conditions: RPMI broth microdilution, 35° C., 48 hours, visual
# Method: All yeasts Candida albicans (Olomouc) and ATCC MYA-2876, Candida glabrata ATCC 2001 and DSY 565, Candida dubliniensis ATCC MYA-646, Candida krusei ATCC 6258 and Candida tropicalis ATCC 750 were sub-cultured from sterile vials onto Sabouraud dextrose agar, which was composed of 40 g dextrose (Penta, Czech Republic), 10 g peptone (OXOID, Great Britain) and 17 g agar (OXOID), dissolved in 1 l of distilled water, and cultivated for 24 hours at 35° C. […]
Recorded Metric: Antifungal activity MIC C. tropicalis ATCC 750 (µM)
Give the number; µM is assumed, so skip it.

Some solved cases for reference:
>>> recorded_result("H-GILSSWLKKLKKIIAK-NH2 [XV]")
1.2
>>> recorded_result("H-KILSSLLKKLKKIIAK-NH2 [VI]")
0.9
>>> recorded_result("H-GILSKLLKKLKKIIAK-NH2 [XI]")
1.0
>>> recorded_result("H-GIWSSLLKKLKKIIAK-NH2 [XIV]")
1.2
>>> recorded_result("H-GILSSLLKKLKKWIAK-NH2 [XVIII]")
1.2
>>> recorded_result("H-GILSSLLKKWKKIIAK-NH2 [XVI]")
1.0

Requested read-out Antifungal activity MIC C. tropicalis ATCC 750, target or system Candida tropicalis ATCC 750, entry H-GILSSLWKKLKKWIAK-NH2 [XVII]
0.8

---

# Assay Comment: in vitro
# Run Conditions: human
Recorded Metric: CC50 at 1 h

Some solved cases for reference:
>>> recorded_result("H-GIMSSLMKKLKKIIAK-NH2 [I]")
"> 400 µM"
>>> recorded_result("H-GILSSLWKKLKKIIAK-NH2 [XII]")
"197 µM"

Look at this substance and give its reported CC50 at 1 h. H-GIMSSLMKKLAAIIKK-NH2 [IX]
> 400 µM

Repeat with H-GILSSLLKKLKKIIAK-NH2 [III]
284 µM

---

# Test system: Candida albicans Olomouc
# Run Conditions: Candida albicans Olomouc; YPD medium; 37° C., 20 h (Example 2)
Short version: Antimicrobial activity MIC C. a. Olomouc at least 10 µM is Satisfied, less is Not satisfied.

>>> qualitative_label("H-GIWSSLLKKLKKIIAK-NH2 [XIV]")
"Satisfied"

Check this substance for Antimicrobial activity MIC C. a. Olomouc at or above 10 µM: H-KILSSLLKKLKKIIAK-NH2 [VI]
Satisfied

Repeat with H-GILSSLLKKWKKIIAK-NH2 [XVI]
Satisfied

Repeat with H-GIMSSLMKKLAAHIKK-NH2 [VIII]
Not satisfied

Repeat with H-GILKSLLKKLKKIIAK-NH2 [X]
Satisfied

Repeat with H-GILSSLWKKLKKWIAK-NH2 [XVII]
Satisfied

Repeat with H-GIMSSLMKKLKKIIKK-NH2 [VII]
Not satisfied

Repeat with H-GILSSWLKKLKKIIAK-NH2 [XV]
Satisfied

---

# Assay Comment: in vitro
# Run Conditions: human
Recorded Metric: HC50 at 1 h

Some solved cases for reference:
>>> recorded_result("H-GILSSLWKKLKKWIAK-NH2 [XVII]")
"57.2 µM"
>>> recorded_result("H-GIWSSLLKKLKKIIAK-NH2 [XIV]")
"165 µM"
>>> recorded_result("H-KILSSLLKKLKKIIAK-NH2 [VI]")
"364 µM"

// next entry
Look at this substance and give its reported HC50 at 1 h. H-GILSSLLKKLKKWIAK-NH2 [XVIII]
160 µM

---

Entries and their Metabolic activity (%) S. aureus (Liberec)
# Tested on: S. aureus (Liberec) biofilm
# Assay Comment: Bacterial biofilm, remaining metabolic activity (MTT)
# Format: cell-based, Staphylococcus aureus
# Run Conditions: remaining metabolic activity of biofilm; peptide concentration 32 μmol · l^−1; 20 h
Where a SMILES comes first, the peptide text is derived from it.
Give the number; % is assumed, so skip it.

Some solved cases for reference:
>>> recorded_result("CC[C@@H](C)[C@@H](NC(=O)CN)C(=O)N[C@H](CCSC)C(=O)N[C@H](CO)C(=O)N[C@H](CO)C(=O)N[C@H](CC(C)C)C(=O)N[C@H](CCSC)C(=O)N[C@H](CCCCN)C(=O)N[C@H](CCCCN)C(=O)N[C@H](CC(C)C)C(=O)N[C@H](CCCCN)C(=O)N[C@H](CCCCN)C(=O)N[C@@H](C(=O)N[C@@H](C(=O)N[C@H](C)C(=O)N[C@H](CCCCN)C(N)=O)[C@H](C)CC)[C@H](C)CC [II] (HELM PEPTIDE1{G.[dI].[dM].[dS].[dS].[dL].[dM].[dK].[dK].[dL].[dK].[dK].[dI].[dI].[dA].[dK].[am]}$$$$V2.0)")
107.5
>>> recorded_result("CN[C@H](CC(C)C)C(=O)N[C@H]1C(=O)N[C@@H](CC(N)=O)C(=O)N[C@H]2C(=O)N[C@H]3C(=O)N[C@H](C(=O)N[C@H](C(=O)O)c4cc(O)cc(O)c4-c4cc3ccc4O)[C@H](O)c3ccc(c(Cl)c3)Oc3cc2cc(c3O[C@@H]2O[C@H](CO)[C@@H](O)[C@H](O)[C@H]2O[C@H]2C[C@](C)(N)[C@H](O)[C@H](C)O2)Oc2ccc(cc2Cl)[C@H]1O [Vancomycin, reference compound]")
9.7

// next entry
Look at this compound and give its reported Metabolic activity (%) S. aureus (Liberec). CCCC[C@H](NC(=O)[C@H](CC(C)C)NC(=O)[C@H](CO)NC(=O)[C@H](CO)NC(=O)[C@H](CCCC)NC(=O)[C@@H](NC(=O)CN)[C@@H](C)CC)C(=O)N[C@@H](CCCCN)C(=O)N[C@@H](CCCCN)C(=O)N[C@@H](CC(C)C)C(=O)N[C@@H](CCCCN)C(=O)N[C@@H](CCCCN)C(=O)N[C@H](C(=O)N[C@H](C(=O)N[C@@H](C)C(=O)N[C@@H](CCCCN)C(N)=O)[C@@H](C)CC)[C@@H](C)CC [V] (HELM PEPTIDE1{G.I.[Nle].S.S.L.[Nle].K.K.L.K.K.I.I.A.K.[am]}$$$$V2.0)
49.5

---

# Assay Comment: in vitro
# Run Conditions: human
Where a SMILES comes first, the peptide text is derived from it.
Recorded Metric: HC50 at 1 h (µM)
Give the number; µM is assumed, so skip it.

Look at this compound and give its reported HC50 at 1 h. CCCC[C@H](NC(=O)[C@H](CC(C)C)NC(=O)[C@H](CO)NC(=O)[C@H](CO)NC(=O)[C@H](CCCC)NC(=O)[C@@H](NC(=O)CN)[C@@H](C)CC)C(=O)N[C@@H](CCCCN)C(=O)N[C@@H](CCCCN)C(=O)N[C@@H](CC(C)C)C(=O)N[C@@H](CCCCN)C(=O)N[C@@H](CCCCN)C(=O)N[C@H](C(=O)N[C@H](C(=O)N[C@@H](C)C(=O)N[C@@H](CCCCN)C(N)=O)[C@@H](C)CC)[C@@H](C)CC [V] (HELM PEPTIDE1{G.I.[Nle].S.S.L.[Nle].K.K.L.K.K.I.I.A.K.[am]}$$$$V2.0)
373

---

# System: Candida albicans Olomouc
# Run Conditions: Candida albicans Olomouc; YPD medium; 37° C., 20 h (Example 2)
Recorded Metric: Antimicrobial activity MIC C. a. Olomouc (µM)
Give the number; µM is assumed, so skip it.

>>> recorded_result("H-GILSKLLKKLKKIIAK-NH2 [XI]")
45.3
>>> recorded_result("H-Gly-Ile-Leu-Ser-Ser-Leu-Trp-Lys-Lys-Leu-Lys-Lys-Ile-Ile-Ala-Lys-NH2 (H-GILSSLWKKLKKIIAK-NH2; also: D-amino acids (positions not given here)) [XIX]")
26.0

// next entry
Look at this substance and give its reported Antimicrobial activity MIC C. a. Olomouc. H-GILSSLLKKLKKWIAK-NH2 [XVIII]
16.0
